Reference source: ChEMBL document CHEMBL1158810

Provide the reported logP of each item.
# method: Octanol-water partition coefficient, log POW of the compound
# Type: physicochemical
# setup_conditions: read-out: logP

Task item: Item under review: Oc1cc(O)c2c(c1)O[C@H](c1cc(O)c(O)c(O)c1)[C@H](O)C2 [EPIGALLOCATECHIN] . Reported logP?
Reply: 0.13

Task item: How about O=C(O[C@@H]1Cc2c(O)cc(O)cc2O[C@@H]1c1ccc(O)c(O)c1)c1cc(O)c(O)c(O)c1 [EPICATECHIN GALLATE] ?
Reply: 0.07

Task item: How about CC(C)=CCC1=C(O)C(C(=O)CC(C)C)=C(O)[C@](O)(CC=C(C)C)C1=O ?
Reply: 3.01

Task item: How about CC1=C[C@H](O)CC(C)(C)[C@H]1/C=C/C(C)=C/C=C/C(C)=C/C=C/C=C(C)/C=C/C=C(C)/C=C/C1=C(C)C[C@@H](O)CC1(C)C [LUTEIN] ?
Reply: 3.89

Task item: How about COc1cc(/C=C/C(O)=C/C(=O)/C=C/c2ccc(O)cc2)ccc1O [DEMETHOXYCURCUMIN] ?
Reply: 1

Task item: How about O=C(O[C@@H]1Cc2c(O)cc(O)cc2O[C@@H]1c1cc(O)c(O)c(O)c1)c1cc(O)c(O)c(O)c1 [EPIGALOCATECHIN GALLATE] ?
Reply: 0.09

Task item: How about O=C(/C=C/c1ccc(O)cc1)CC(=O)/C=C/c1ccc(O)cc1 [BISDEMETHOXYCURCUMIN] ?
Reply: 0.85

Task item: How about COc1ccc([C@@H]2CC(=O)c3c(O)cc(O[C@@H]4O[C@H](CO[C@@H]5O[C@@H](C)[C@H](O)[C@@H](O)[C@H]5O)[C@@H](O)[C@H](O)[C@H]4O)cc3O2)cc1O [HESPERIDIN] ?
Reply: -0.21

Task item: How about C[C@@H]1O[C@@H](O[C@H]2[C@H](Oc3cc(O)c4c(c3)O[C@H](c3ccc(O)cc3)CC4=O)O[C@H](CO)[C@@H](O)[C@@H]2O)[C@H](O)[C@H](O)[C@H]1O [NARINGIN] ?
Reply: -0.15

Task item: How about CC(C)=CCC1=C(O)C(C(=O)C(C)C)=C(O)[C@](O)(CC=C(C)C)C1=O ?
Reply: 2.92

Task item: How about Oc1cc(O)c2c(c1)O[C@H](c1ccc(O)c(O)c1)[C@@H](O)C2 [CIANIDANOL] ?
Reply: 0.53

Task item: How about CC1=C(/C=C/C(C)=C/C=C/C(C)=C/C=C/C=C(C)/C=C/C=C(C)/C=C/C2=C(C)CCCC2(C)C)C(C)(C)CCC1 [BETA CAROTENE] ?
Reply: 4.19

Task item: How about Oc1cc(O)c2c(c1)O[C@H](c1ccc(O)c(O)c1)[C@H](O)C2 [(-)-EPICATECHIN] ?
Reply: 0.67

Task item: How about O=C(O[C@@H]1Cc2c(O)cc(O)cc2O[C@H]1c1cc(O)c(O)c(O)c1)c1cc(O)c(O)c(O)c1 [GALLOCATECHIN GALLATE] ?
Reply: 0.12
